Target: α1 and β1 subunits of guanylate cyclase (sGC), expressed in Sf9 cells (Homo sapiens, UniProt Q02108+Q02153)
Construct: made in house; host or cells: Sf9 insect cells (baculovirus co-infection); high-speed supernatant used unpurified
Sequence (Q02108 1-690): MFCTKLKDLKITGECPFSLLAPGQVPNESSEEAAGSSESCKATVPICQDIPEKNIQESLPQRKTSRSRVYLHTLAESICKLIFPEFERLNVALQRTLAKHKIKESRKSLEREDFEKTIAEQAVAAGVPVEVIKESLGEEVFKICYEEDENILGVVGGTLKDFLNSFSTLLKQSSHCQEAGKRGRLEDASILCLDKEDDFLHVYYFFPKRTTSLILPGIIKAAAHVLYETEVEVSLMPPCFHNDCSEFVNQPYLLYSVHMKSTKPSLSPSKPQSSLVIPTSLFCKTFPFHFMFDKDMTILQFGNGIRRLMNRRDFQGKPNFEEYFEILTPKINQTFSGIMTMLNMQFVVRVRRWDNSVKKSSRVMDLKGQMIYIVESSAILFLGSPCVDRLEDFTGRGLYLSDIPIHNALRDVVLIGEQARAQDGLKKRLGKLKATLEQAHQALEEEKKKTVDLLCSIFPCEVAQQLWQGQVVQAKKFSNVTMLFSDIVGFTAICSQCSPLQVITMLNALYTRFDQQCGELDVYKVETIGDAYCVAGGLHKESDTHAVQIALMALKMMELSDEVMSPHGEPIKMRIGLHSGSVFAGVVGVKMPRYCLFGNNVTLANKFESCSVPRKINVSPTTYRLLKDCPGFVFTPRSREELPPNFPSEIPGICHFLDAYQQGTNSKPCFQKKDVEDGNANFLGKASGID
Sequence (Q02153 1-619): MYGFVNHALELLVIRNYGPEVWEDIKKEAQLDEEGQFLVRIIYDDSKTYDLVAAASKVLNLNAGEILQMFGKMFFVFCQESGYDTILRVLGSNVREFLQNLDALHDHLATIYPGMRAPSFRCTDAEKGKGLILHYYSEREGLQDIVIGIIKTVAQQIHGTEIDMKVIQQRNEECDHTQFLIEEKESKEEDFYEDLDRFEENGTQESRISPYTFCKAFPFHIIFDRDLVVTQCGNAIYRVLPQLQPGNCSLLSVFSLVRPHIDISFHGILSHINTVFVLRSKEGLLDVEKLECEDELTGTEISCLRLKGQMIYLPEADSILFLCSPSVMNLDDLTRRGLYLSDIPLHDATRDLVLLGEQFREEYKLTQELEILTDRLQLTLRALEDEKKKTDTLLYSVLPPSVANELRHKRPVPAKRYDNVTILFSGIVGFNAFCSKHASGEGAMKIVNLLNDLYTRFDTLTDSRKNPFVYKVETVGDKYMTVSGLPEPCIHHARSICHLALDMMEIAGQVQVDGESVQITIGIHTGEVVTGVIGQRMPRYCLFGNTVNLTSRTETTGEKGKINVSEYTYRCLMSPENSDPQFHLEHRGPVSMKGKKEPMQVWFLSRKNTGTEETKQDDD
Test: Guanylate Cyclase Assay (formation of cyclic GMP from GTP)
Assay type: biochemical
Conditions: compound at 100 μM without SNP; normalized to activity of 100 μM YC-1 (without SNP) as 100%; read-out: Mean basal efficacy at 100 μM, [% of YC-1]
REPORTED PROPERTY: Emax at 100 µM (%)

- O=[N+]([O-])c1cccnc1Oc1nn(Cc2ccccc2F)c2ncccc12: 7.1
- CCCC(CO)NC(=O)c1ccccc1Oc1nn(Cc2ccccc2)c2ccccc12 (stereo not drawn): 5
- C(=Cc1ccccc1)Cn1nc(OCc2ccccc2)c2ccccc21: -2
- O=C(NCC(O)c1ccccc1)c1ccccc1Oc1nn(Cc2ccccc2)c2ccccc12 (stereo not drawn): 2
- O=C(NCC1CCCCC1O)c1ccccc1Oc1nn(Cc2ccccc2)c2ccccc12 (stereo not drawn): 1
- CN(C)CCCN1CCN(C(=O)c2ccccc2Oc2nn(Cc3ccccc3)c3ccccc23)CC1: 4
- CN(C)CCNC(=O)c1ccccc1Oc1nn(Cc2ccccc2)c2ccccc12: 6
- O=C(O)c1ccc(Oc2nn(Cc3ccccc3)c3ccccc23)o1: 0
- OCc1ccc(Cn2nc(OCc3ccccc3)c3ccccc32)o1: 1
